The measurements presented in this section are drawn from ChEMBL document CHEMBL3507680.

# experiment: Human HepG2 cell viability assay in 384 well format
# Format: toxicity, cell-based
# Set-up: dose 125 nL, time 70.5 hour; concentration not given beside the values
# reported_conditions: HepG2 cells, read-out: Inhibition
measure_name: cytotoxicity at 70.5 h (%)
Your answer is read as %, so omit the unit and give the number.

1) O=C(Cc1ccccc1)N1Cc2nccn2CC(CN2CCCC2)C1 (configuration not stated) ... -0.449
2) N#Cc1ccccc1C(=O)NCCC1CN(Cc2ccco2)CCO1 (configuration not stated) ... 2.72
3) Cc1cccc(O[C@H]2COCCN(C3CCC3)C2)n1 ... -6.06
4) Cc1ccc(S(=O)(=O)NC(=O)C2(c3ccc(F)cc3)CCC2)c(C)c1 ... 26.9
5) CN1CCN(C2CCN(Cc3noc(C4CC4)n3)CC2)C1=O ... -1.19
6) Cn1ncnc1-c1ccnc(NCc2ccncc2)n1 ... -13.8
7) C/C=C(\C)CN1C[C@@H](NC(=O)c2ccc(F)c(F)c2)C[C@H]1C(=O)NCC ... -12.2
8) Cc1ccc(N2CC[C@H](OCC3CC3)[C@@H]2Cc2cnn(C)c2)nn1 ... 0.692

Exam item: Please report the recorded cytotoxicity at 70.5 h for `Nc1ncc(CN2C[C@H](C3CC3)[C@@H](N)C2)cn1` .
Marked response: -5.66

Exam item: Try this molecule next: CCn1ncc2c1C(COC)N(C(=O)CCc1ccccc1)CC2 (configuration not stated)
Marked response: 11.6

###

Below, each entry is listed alongside its reported cytotoxicity at 70.5 h.
# experiment: Human HepG2 cell viability assay in 384 well format
# Format: toxicity, cell-based
# Set-up: dose 125 nL, time 70.5 hour; concentration not given beside the values
# reported_conditions: HepG2 cells, read-out: Inhibition
Your answer is read as %, so omit the unit and give the number.

1. Cc1cc2n(n1)CC(CNCc1ccc(-n3cccn3)nc1)CN2 (centres undefined) ... 3.95
2. CC(C)CN1CCC(C(=O)NCCNC(=O)c2ccco2)CC1 ... -5.07
3. CCN(Cc1c(C)nn(CC)c1C)S(=O)(=O)c1cnn(C)c1C ... 14.5

Exam item: Please report the recorded cytotoxicity at 70.5 h for CN(C1CCCCC1)S(=O)(=O)NC1CCCN(c2ncccn2)C1 (centres undefined) .
Marked response: -8.05

Exam item: Try this compound next: O=C(c1ccco1)N1CCCC2(CN(Cc3ccc(F)cc3)CCO2)C1 (centres undefined)
Marked response: -1.46

Exam item: Try this compound next: N#CC(NC(=O)CNC(=O)c1ccccc1)c1ccsc1 (centres undefined)
Marked response: -3.11

Exam item: Try this compound next: `Cc1csc(CNC(=O)NC2CCN(c3ncccn3)CC2)n1`
Marked response: -11.3

Exam item: Try this compound next: Cc1ccc(CC(=O)N2CCCC(n3nc(C)cc3C)C2)cn1 (centres undefined)
Marked response: -9.71

Exam item: Try this compound next: COc1cccc(OCC2CCCN(C(=O)c3cnn(C)c3)C2)c1 (centres undefined)
Marked response: 27.4

###

# experiment: Human HepG2 cell viability assay in 384 well format
# Type: toxicity, cell-based
# Parameters: dose 125 nL, time 70.5 hour; concentration not given beside the values
# reported_conditions: HepG2 cells, read-out: Inhibition
measure_name: cytotoxicity at 70.5 h (%)
Your answer is read as %, so omit the unit and give the number.

Use these answered entries as a reference point.
1) O=C(NCCC1CCN(CC(F)(F)F)CC1)C1COCCO1 (configuration not stated) ... 0.242
2) O=C(NCCn1cccc1)c1c(O)cc(F)cc1F ... -6.2
3) CN(Cc1nnc2n1CCC2)C(=O)c1ccc2c(c1)OCCO2 ... 44.2
4) CC(C)[C@H]1COC(=O)N1Cc1nnc(-c2ccccc2)o1 ... -1.91

--- query ---
Exam item: Please report the recorded cytotoxicity at 70.5 h for `COC(=O)CNC(=O)CSCc1nc(O)c2c(C)c(C)sc2n1` .
Marked response: -18.2

###

# experiment: Human HepG2 cell viability assay in 384 well format
# Assay type: toxicity, cell-based
# Parameters: dose 125 nL, time 70.5 hour; concentration not given beside the values
# reported_conditions: HepG2 cells, read-out: Inhibition
measure_name: cytotoxicity at 70.5 h (%)
Your answer is read as %, so omit the unit and give the number.

Use these answered entries as a reference point.
1. CC(C)c1ccc(CN2CCC3(CCCN(c4nncs4)C3)C2)cc1 (centres undefined) ... -4.12
2. O=C(CNCCn1cccn1)NCC1(c2ccccc2)CC1 ... -4.79
3. CC(Cn1cccn1)NCc1csc2c1CCCC2 (centres undefined) ... 0.457

Exam item: Please report the recorded cytotoxicity at 70.5 h for `Cn1cccc1C(=O)N1CCC(c2nccn2Cc2ccncc2)CC1` .
Marked response: 25.5

###

# experiment: Human HepG2 cell viability assay in 384 well format
# Format: toxicity, cell-based
# Design: dose 125 nL, time 70.5 hour; concentration not given beside the values
# reported_conditions: HepG2 cells, read-out: Inhibition
Below, each entry is listed alongside its reported cytotoxicity at 70.5 h.
Your answer is read as %, so omit the unit and give the number.

Use these answered entries as a reference point.
1. CC(C)CC(=O)N1CCC2(CC1)NC(=O)[C@H]1CN(C(=O)N(C)C)C[C@H]12 ... -7.99
2. NC(=O)C1CCCN1Cc1cccc(NC(=O)c2cccs2)c1 (configuration not stated) ... 2.36

Exam item: Please report the recorded cytotoxicity at 70.5 h for O=C(C(CNCc1ccccn1)c1ccccc1)N1CCOCC1 (configuration not stated) .
Marked response: 0.375

Exam item: Try this molecule next: `CCOCc1nc(N2CCOCC2)sc1C(=O)NCCCc1ccco1`
Marked response: 0.741

Exam item: Try this molecule next: `COc1cc(NC(=O)c2nc3ccccc3n(C)c2=O)cc(OC)c1`
Marked response: -14.2

Exam item: Try this molecule next: `Cc1ccsc1-c1cc(C(=O)O)cc(S(=O)(=O)NCc2ccccn2)c1`
Marked response: -9.5

Exam item: Try this molecule next: Cc1nc(O)cc(C2CCN(C(=O)c3[nH]nc4c3CC(C)CC4)CC2)n1 (configuration not stated)
Marked response: -11

Exam item: Try this molecule next: O=C(CCc1ccccn1)NCC(O)c1ccc(Cl)cc1Cl (configuration not stated)
Marked response: -1.56

Exam item: Try this molecule next: `O=C(Nc1ccc(N2CCOCC2)nc1)N1CCc2sccc2C1`
Marked response: 46.1

Exam item: Try this molecule next: `CCN(c1cc(C)cc(C)c1)S(=O)(=O)c1cc(C(=O)O)cs1`
Marked response: -7.47

Exam item: Try this molecule next: CC(C)N(Cc1nc(-c2cccs2)no1)CC1CCC(=O)N1 (configuration not stated)
Marked response: -11.1

###

# experiment: Human HepG2 cell viability assay in 384 well format
# Format: toxicity, cell-based
# Set-up: dose 125 nL, time 70.5 hour; concentration not given beside the values
# reported_conditions: HepG2 cells, read-out: Inhibition
Below, each entry is listed alongside its reported cytotoxicity at 70.5 h.
Your answer is read as %, so omit the unit and give the number.

Use these answered entries as a reference point.
1. Cc1nnc(SCCC(=O)N(C)Cc2ccc(Cl)s2)[nH]1 ... -14.2
2. O=C(NCCc1cccs1)C1(N2CCCCC2)Cc2ccccc2C1 ... -7.46
3. CN(C)CC1CN(c2ncnc3ccsc23)CCO1 (stereo not given) ... 8.47
4. c1cnn(Cc2nnc3n2CCCN(Cc2ccsc2)C3)c1 ... 4.58

Exam item: Please report the recorded cytotoxicity at 70.5 h for `O=C(NC[C@H]1OC[C@@H](NC2CCCCC2)[C@@H]1O)c1cccs1` .
Marked response: -5.2

###

# experiment: Human HepG2 cell viability assay in 384 well format
# Type: toxicity, cell-based
# Parameters: dose 125 nL, time 70.5 hour; concentration not given beside the values
# reported_conditions: HepG2 cells, read-out: Inhibition
measure_name: cytotoxicity at 70.5 h (%)
Your answer is read as %, so omit the unit and give the number.

1. COC(=O)N1CCc2ccc(NC(=O)c3cn(C)nn3)cc2C1 ... -4.27
2. CCn1cc(CN2CCCN(C(=O)CCc3nccs3)CC2)cn1 ... -12.4
3. CC(C)S(=O)(=O)N(C)C(=O)CCc1ccsc1 ... -12

Exam item: Please report the recorded cytotoxicity at 70.5 h for `CC(C)Cc1cc(NC(=O)c2ccccc2)n(C)n1` .
Marked response: -15.4

Exam item: Try this compound next: `Cc1cccc(NC(=O)CN(C)C(=O)c2ccc(OC(C)C)nc2)n1`
Marked response: -2.88

Exam item: Try this compound next: `CCn1c(N)nc2cc(C(=O)N3Cc4ccccc4C3)cnc21`
Marked response: -4.1

Exam item: Try this compound next: `O=C(NCCCNC(=O)C1CCC1)NCCn1cccc1`
Marked response: -5.85

Exam item: Try this compound next: `CCS(=O)(=O)N1CCC2(CC1)CN(C(=O)N(C)C)Cc1ccccc12`
Marked response: -2.71

Exam item: Try this compound next: `CCNC(=O)[C@@H]1C[C@H](NC(=O)c2cncnc2C)CN1CCCSC`
Marked response: -1.96

Exam item: Try this compound next: O=C1NC2(CCN(C(=O)Cc3ccsc3)CC2)CC1c1ccccc1 (stereo unspecified)
Marked response: 0.488

Exam item: Try this compound next: O=S(=O)(NCC(O)c1ccc(C(F)(F)F)cc1)C1CC1 (stereo unspecified)
Marked response: 12.5

Exam item: Try this compound next: `Cc1nnc2n1CCN(C(=O)c1cc(Cl)c[nH]1)C2`
Marked response: -6.67
